# System Tested: Proto-oncogene tyrosine-protein kinase Src (Homo sapiens, UniProt P12931)
# Sequence (P12931 2-536 limits assumed): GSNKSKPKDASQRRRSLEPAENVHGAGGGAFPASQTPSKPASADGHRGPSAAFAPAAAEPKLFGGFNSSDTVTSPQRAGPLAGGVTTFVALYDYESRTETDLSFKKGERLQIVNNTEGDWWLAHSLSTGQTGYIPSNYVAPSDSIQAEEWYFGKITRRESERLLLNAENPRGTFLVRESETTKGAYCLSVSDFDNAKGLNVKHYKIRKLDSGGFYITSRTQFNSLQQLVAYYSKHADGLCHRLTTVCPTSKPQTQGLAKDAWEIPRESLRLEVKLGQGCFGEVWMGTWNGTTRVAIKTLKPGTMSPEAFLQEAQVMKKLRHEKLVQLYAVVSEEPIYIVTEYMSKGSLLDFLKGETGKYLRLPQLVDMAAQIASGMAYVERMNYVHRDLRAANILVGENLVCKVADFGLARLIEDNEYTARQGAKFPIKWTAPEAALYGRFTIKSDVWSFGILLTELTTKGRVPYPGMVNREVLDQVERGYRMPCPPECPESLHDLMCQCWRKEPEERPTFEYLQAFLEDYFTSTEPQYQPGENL
# Assay Summary: Inhibition of SRC (unknown origin) at 30 uM by microfluidic mobility shift assay relative to control

Molecule: c1ccc(CC2CCNC3(CCN(c4ncnc5[nH]cnc45)CC3)C2)cc1 (racemic)
Units Label: %
inhibition: 64
//
Molecule: O=S(=O)(NCCNC/C=C/c1ccc(Br)cc1)c1cccc2cnccc12
Units Label: %
inhibition: 4
//
Molecule: c1nc(N2CCC3(CCCNC3)CC2)c2nc[nH]c2n1
Units Label: %
inhibition: 70
//
Molecule: c1nc(N2CCC3(CCCCN3)CC2)c2nc[nH]c2n1
Units Label: %
inhibition: 25
//
Molecule: O=S(=O)(c1cccc2cnccc12)N1CCC2(CCCN2)CC1
Units Label: %
inhibition: 10
//
Molecule: c1nc(N2CCC3(CCCCC3)CC2)c2nc[nH]c2n1
Units Label: %
inhibition: 32
